target under test: T1, UNK ZnF1-6 (called full-length) (human, UniProt Q9C0B0 30-357)
T1 sequence: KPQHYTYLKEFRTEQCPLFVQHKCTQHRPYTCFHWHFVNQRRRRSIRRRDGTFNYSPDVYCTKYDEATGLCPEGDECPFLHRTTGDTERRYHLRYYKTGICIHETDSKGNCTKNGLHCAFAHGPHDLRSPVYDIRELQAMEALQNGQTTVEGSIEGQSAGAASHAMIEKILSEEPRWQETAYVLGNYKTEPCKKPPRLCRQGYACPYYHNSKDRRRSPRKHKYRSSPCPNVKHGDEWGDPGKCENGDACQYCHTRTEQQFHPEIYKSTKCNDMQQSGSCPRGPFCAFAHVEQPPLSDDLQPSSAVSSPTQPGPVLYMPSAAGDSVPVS
assay procedure: nsRBNS (natural sequence RNA bind-n-seq); RBNS binding buffer (assumed for nsRBNS): 25 mM Tris pH 7.5, 150 mM KCl, 3 mM MgCl2, 0.01% Triton X-100, 500 ug/ml BSA, 20 U/ml SUPERase-In, 4 C; UNK is unkempt and MSI1 is Musashi-1; names of the RNAs are library labels; protein concentration not given here; high values mean tight binding
Whole data set: some 5,800 sequences, median “enrichment r” near 0.68, cut for the highest 2% near 11. A selection follows.
Catalogue of binding signal readings, one per entry.

>  <binder>
chr14:102081487:102081564:-|3pUTR|ENSG00000080824|msi1_unk|FALSE|overlapping (ssRNA) RNA: GGGAGUUCUACAGUCCGACGAUCGAAGAUAAGAUUUCUGUCUACUAAGUGAUGCUGUGAUACCUUAGGCACUAAAGCAGAGCUAGUAAUGCUUUUUGAGUUUCAUGUUGGUUUAUUUUCACAGAUUGGGGUAACGUGCACUGUCAACAGAGGAUUGAGCAUCA

>  <binding signal>
0.375 enrichment R

$$$$
>  <binder>
ENSG00000100154:stop:overlap|stop_codon|ENSG00000100154|stop_codon|NA|stop_codon (ssRNA) RNA: GGGAGUUCUACAGUCCGACGAUCAGCCAGUGAAGGCAGGUGACACUUACCUCCACCAGGUGAUGCAGGCUGUGGUGAUAAACUAGAGUGUGAAGAGCUCAGAGUGCAGCCUCUGGCCUUGCCACUCACAAGCUGUAGGACACUCAACAGAGGAUUGAGCAUCA

>  <binding signal>
0.552 enrichment R

$$$$
